B1: TPR 5TU (parent)
chain: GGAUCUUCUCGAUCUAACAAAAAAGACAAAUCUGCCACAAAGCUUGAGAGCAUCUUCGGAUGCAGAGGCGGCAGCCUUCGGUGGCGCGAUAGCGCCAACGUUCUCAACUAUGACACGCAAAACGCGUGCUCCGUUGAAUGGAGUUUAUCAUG

# Variants of: B1
# protocol_summary: polymerase ribozyme fitness, log enrichment relative to wild type (log ratio); higher = more active; in vitro selection for triplet polymerase activity
Fewer inactive variants are shown than the library holds.
experimental_endpoint: polymerase ribozyme fitness (log ratio)
# respond with the number and nothing more

C14G C32G
-4.17
C93U A97U C125A
-2.13
G58U C85G
-1.61
G50A C96G
-1.55
A41G C96A
0.0745

Task: Could you tell me which polymerase ribozyme fitness (log ratio) is on file for C36U G94A ?
Output: -3.52

Task: Repeat with `A106G`
Output: 0.398

Task: Please do the same for A24U C149G as well.
Output: -3.88

Task: Consider next the variant A37G A60G G83C C96U G141U in the same way.
Output: -2.58

Task: # repeat for A37U C103A
Output: -3.85

Task: Thanks! And G11U C32U G84A C85A C105U C132U U139G U151G ?
Output: -4.14

Task: Now consider U15C C18U C85G C118U G136U and answer again.
Output: -3.19
